Molecular target: STING WT (His-TVMV-S-hSTING(155-341)-H232R) (Homo sapiens, UniProt Q86WV6, H232R)
Construct: STING WT: His-TVMV-S-hSTING(155-341)-H232R
Sequence (Q86WV6 with tags, fused parts or gaps H232R): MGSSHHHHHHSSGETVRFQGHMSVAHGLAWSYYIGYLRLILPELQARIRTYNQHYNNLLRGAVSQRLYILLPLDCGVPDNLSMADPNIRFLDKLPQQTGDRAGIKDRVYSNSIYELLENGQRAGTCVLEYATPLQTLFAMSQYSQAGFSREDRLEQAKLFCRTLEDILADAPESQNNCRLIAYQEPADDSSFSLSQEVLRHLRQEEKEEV
Assay: STING HTRF binding assay (time resolved FRET competition), STING WT
Details: 20 nM His-tagged STING WT cytoplasmic domain, 200 nM fluorescein-labeled cGAMP analog probe, one hour; read-out: HTRF Binding Assays IC50 WT
Can you tell me IC50 for the items I'm about to list?
Answers are plain numbers, in nM.

Working through the 2 molecules below one at a time, give IC50 for each.
1. NC(=O)c1cccc2c1nnn2[C@@H]1O[C@@H]2COP(=O)(O)O[C@H]3[C@@H](F)[C@H](n4cnc5c4ncn4ccnc54)O[C@@H]3COP(=O)(S)O[C@@H]1[C@@H]2F (single isomer, unassigned) [Example 16-1]
2. Nc1ncnc2c1ncn2[C@@H]1O[C@@H]2COP(=O)(S)O[C@@H]3[C@H](O)[C@@H](COP(=O)(S)O[C@H]2[C@H]1F)O[C@H]3n1nnc2c([N+](=O)[O-])cccc21 (single isomer, unassigned) [Example 7-3]

Response given:
1. 90
2. 60

Here are 4 molecules. What values of IC50 were reported for them?
1. NC(=O)c1cccc2c1nnn2[C@@H]1O[C@@H]2COP(=O)(O)O[C@H]3[C@@H](F)[C@H](n4cnc5c(N)ncnc54)O[C@@H]3COP(=O)(S)O[C@@H]1[C@@H]2F (single isomer, unassigned) [Example 6-1]
2. Nc1ncnc2c1ncn2[C@@H]1O[C@@H]2COP(=O)(S)O[C@@H]3[C@H](F)[C@@H](COP(=O)(S)O[C@H]2[C@H]1F)O[C@H]3n1nnc2c([N+](=O)[O-])cccc21 (single isomer, unassigned) [Example 11-1]
3. NC(=O)c1cccc2c1nnn2[C@@H]1O[C@@H]2COP(=O)(S)O[C@H]3[C@@H](F)[C@H](n4cnc5c(N)ncnc54)O[C@@H]3COP(=O)(S)O[C@@H]1[C@@H]2F (single isomer, unassigned) [Example 10-3]
4. NC(=O)c1cccc2c1nnn2[C@@H]1O[C@@H]2COP(=O)(S)O[C@H]3[C@@H](F)[C@H](n4cnc5c(N)ncnc54)O[C@@H]3COP(=O)(S)O[C@@H]1[C@@H]2O (single isomer, unassigned) [Example 8-3]

Response given:
1. 20
2. 10
3. 50
4. 140

Cited source: patent US10947263B2
